Listed next: entries and their corresponding TGI.
Tested on: SN12C renal
assay procedure: NCI tumour cell line growth inhibition, 48 h
observed property: TGI

                                    compound          tgt  reported
 0  COc1cc(-c2cc(-c3nc4ccccc4[nH]3)[nH]n2)cc(OC)c1OC  SN12C renal   20.4 µM
 1     CNS(=O)(=O)NN(C)S(=O)(=O)c1ccc(Br)cc1  SN12C renal  > 100 µM
 2    COc1ccc(C(=O)c2cc(OC)c(OC)c(OC)c2)cc1O  SN12C renal  > 100 µM
 3     O=S(=O)(O)Nc1ccc(-c2nc3ccccc3s2)cc1Cl  SN12C renal  > 100 µM
 4                     O=Cc1[nH]c2ccccc2c1Br  SN12C renal   50.5 µM
 5  Cn1c(=O)c2[nH]c(COCc3nc4c([nH]3)c(=O)n(C)c(=O)n4C)nc2n(C)c1=O  SN12C renal  > 100 µM
 6  CC(=O)O[C@@H]1CC(C)C2CC2C2=C(C(O)OC2O)[C@@H]1C(C)CCC=C(C)C (some centres not stated)  SN12C renal   35.9 µM
 7  OCC1CCCCN1Cc1nc2ccc(Cl)cc2[nH]1 (configuration not stated)  SN12C renal  > 100 µM
 8                  COc1cc(/C=C/C(=O)O)ccc1O  SN12C renal  > 100 µM
 9  CC(=O)NC1CCC(NC(=O)OC(C)(C)C)C(NC(=O)OC(C)(C)C)C1 (configuration not stated)  SN12C renal  > 100 µM
10  c1ccc(-c2cc(-c3cc(-c4ccccc4)n[nH]3)[nH]n2)cc1  SN12C renal  > 100 µM
11     CO/N=C1/NC(=O)/C(=C/c2ccc3ncccc3c2)S1  SN12C renal   > 25 µM

---

System: HL-60(TB) leukemia
assay procedure: NCI tumour cell line growth inhibition, 48 h; in the data active = GI50 below about 0.43 µM; inactive = the rest
Outcomes: active, inactive

                                  structure  qualitative_label
0  O=C(Nc1ccncc1)C(=O)c1cn(S(=O)(=O)c2ccccc2F)c2ccccc12           inactive
1  COc1cccc(/C=C/C(=O)c2cc3c(N)c(C(=O)Nc4cccc(Cl)c4C)sc3nc2C)c1           inactive
2  C=C(CN1CCN(c2ccccc2F)CC1)c1ccc(C(=O)Nc2ccccc2N)cc1             active

---

Tested on: SK-MEL-2 melanoma
assay procedure: NCI tumour cell line growth inhibition, 48 h
Listed next: entries and their corresponding TGI.
observed property: TGI

In [3]: df
Out[3]:
                                   compound                tgt  reported
0                     O=Cc1[nH]c2ccccc2c1Br  SK-MEL-2 melanoma   31.2 µM
1  CC(=O)O/C(=C(/C#N)C(=O)O)C1C(C(=O)O)C(c2ccccc2[N+](=O)[O-])C=C(c2ccco2)N1c1ccncc1 (stereo not drawn)  SK-MEL-2 melanoma   22.2 µM
2  CC1C=C(NCC2(CO)CCC2)NC(N)=N1 (stereo not drawn)  SK-MEL-2 melanoma  > 100 µM

---

Test system: HCT-15 colon
assay procedure: NCI tumour cell line growth inhibition, 48 h
Recorded TGI determines the group label, using bottom range: < 8 µM; center range: ≥ 8 µM and < 30 µM; top range: ≥ 30 µM

                                    compound  qualitative_label
 0          NC(=O)C1=C(c2ccccc2)c2ccccc2C1=O       center range
 1   COc1cc2cnc3c(c2cc1OC)Cc1cc2c(cc1-3)OCO2          top range
 2  C=C(CN1CCN(c2ccccc2F)CC1)c1ccc(C(=O)Nc2ccccc2N)cc1          top range
 3  CCOP(=O)(OCC)C(Cc1ccccc1)N=C(c1ccccc1)c1ccccc1 (stereo not given)       center range
 4  C/C=C/[C@@H]1O[C@H](CC#C[Si](C)(C)C)[C@@]2(C=O)C(C)=CC[C@H](C(C)C)[C@@H]12          top range
 5  O=[N+]([O-])/C(C(Cl)=C(Cl)Cl)=C(/Sc1ccccc1)N1CCOCC1       center range
 6  CCOc1cc2ncc(C#N)c(Nc3ccc(F)c(Cl)c3)c2cc1NC(=O)/C=C/CN(C)C       bottom range
 7  C=C1C(=O)O[C@@H]2C[C@@H](C)[C@@H]3[C@@H](OC4OC(COC(C)=O)C(O)C(O)C4O)CC(=O)[C@@]3(C)C[C@H]12 (stereo not given in full)       bottom range
 8     CCc1ccc(CCC(=O)Nc2ncc(Cc3ccccc3)s2)o1          top range
 9   CCc1oc2ccccc2c1C(=O)c1cc(Br)c(O)c(Br)c1          top range
10  CCCCN(CCCC)c1ccc(N=Nc2ccc(S(=O)(=O)O)cc2)cc1          top range
11  N#CC1(c2nc3ccccc3o2)C(=O)C(=O)N(c2ccc(Cl)c(Cl)c2)C(=O)C1=O          top range
12  O=C(N/N=C/c1ccc(O)cc1O)c1ccc(Nc2ccnc(C(F)(F)F)c2)cc1          top range
13        N#C[C@](CO)(NC(=O)OCc1ccccc1)C(F)F          top range
14  Cc1c(Cl)cccc1NC(=O)c1sc2nc3c(cc2c1N)CCCCCC3          top range
15  CN(C)CCCn1c2c3ccccc3ccc2c2oc(=O)c3ccccc3c21       bottom range
16  C=CCN1C(=O)/C(=C/c2cccs2)N=C1SC1OC(COC(=O)c2ccccc2)C(OC(=O)c2ccccc2)C1OC(=O)c1ccccc1 (stereo not given)          top range

---

Test system: IGROV1 ovarian
assay procedure: NCI tumour cell line growth inhibition, 48 h
observed property: TGI

>>> df
                                   molecule             tgt  observed_property    reported
0                                     CNC=O  IGROV1 ovarian                TGI  > 10000 µM
1   CCc1oc2ccccc2c1C(=O)c1cc(Br)c(O)c(Br)c1  IGROV1 ovarian                TGI    > 100 µM
2  CC(=O)O/C(=C(/C#N)C(=O)O)C1C(C(=O)O)C(c2ccccc2[N+](=O)[O-])C=C(c2ccco2)N1c1ccncc1 (stereo not given)  IGROV1 ovarian                TGI     3.29 µM
3  Cc1cc(S(N)(=O)=O)c(S/C(=N\Nc2ccc([N+](=O)[O-])cc2)c2ccc(Cl)cc2)cc1Cl  IGROV1 ovarian                TGI     12.8 µM
4  COC(=O)c1ccc(NCC2=CC(=O)c3ccccc3C2=O)cc1  IGROV1 ovarian                TGI     30.2 µM
5  O=C1CNc2cc(N3CCN(c4cccc(C(F)(F)F)c4)CC3)ccc2N1  IGROV1 ovarian                TGI    > 100 µM
6                     O=Cc1[nH]c2ccccc2c1Br  IGROV1 ovarian                TGI     70.2 µM
7  N#CSCC1CC(O)(c2ccccc2)C(c2ccccc2)C(c2ccc(F)cc2)O1 (stereo not given)  IGROV1 ovarian                TGI      7.6 µM
8  C=CCN1C(=O)/C(=C/c2cccs2)N=C1SC1OC(COC(=O)c2ccccc2)C(OC(=O)c2ccccc2)C1OC(=O)c1ccccc1 (stereo not given)  IGROV1 ovarian                TGI    > 100 µM
9  Cc1c(C(=O)CC(=O)C(=O)Nc2cccc(C(F)(F)F)c2)[n+](=O)c2ccccc2n1[O-]  IGROV1 ovarian                TGI     9.34 µM

---

Test system: HCT-15 colon
assay procedure: NCI tumour cell line growth inhibition, 48 h
We begin with a simple list: items and their reported TGI.
observed property: TGI

compound	observed property	reported
COc1ccc2nc(NC(=O)C(=O)CC(=O)c3ccc(Cl)cc3)sc2c1	TGI	> 100 µM
c1ccc(-c2cc(-c3cc(-c4ccccc4)n[nH]3)[nH]n2)cc1	TGI	> 100 µM
Cc1cc2c(C(N)=O)cccc2n1-c1nc2c(c(NCc3ccccc3)n1)CCCN2	TGI	0.467 µM
O=[N+]([O-])C(=C/C1CCCCC1)/C(=C\C1CCCCC1)[N+](=O)[O-]	TGI	3.76 µM
CNC=O	TGI	> 10000 µM
COc1ccc(/C=N/n2c(Cc3ccc(Cl)cc3)n[nH]c2=O)cc1	TGI	> 100 µM
COc1cc(-c2cc(-c3nc4ccccc4[nH]3)[nH]n2)cc(OC)c1OC	TGI	24.4 µM
CC(=O)O/C(=C(/C#N)C(=O)O)C1C(C(=O)O)C(c2ccccc2[N+](=O)[O-])C=C(c2ccco2)N1c1ccncc1 (centres undefined)	TGI	4.83 µM
O=C(O)c1ccc([N+](=O)[O-])c2c(=O)c3ccccc3[nH]c12	TGI	> 100 µM
CC(=O)O[C@@H]1CC(C)C2CC2C2=C(C(O)OC2O)[C@@H]1C(C)CCC=C(C)C (some centres undefined)	TGI	49.5 µM
Cc1ccc(NS(=O)(=O)c2cc(C)ccc2C)cc1	TGI	33.9 µM
COC1=C(C(=O)OC(C)(C)C)[C@]2(C)C(C(=O)OC(C)(C)C)C(OC)=C(C(=O)OC(C)(C)C)[C@]2(C)C1C(=O)OC(C)(C)C (some centres undefined)	TGI	> 100 µM
c1ccc2c(Cc3c[nH]c4ccccc34)c[nH]c2c1	TGI	> 100 µM
C(/C=N/NC1=NCCN1)=N\NC1=NCCN1	TGI	> 100 µM
C[C@@H]1CCN(C(=O)CC#N)C[C@@H]1N(C)c1ncnc2[nH]ccc12	TGI	> 100 µM
CC(=O)OC[C@@H]1[C@H]2CC(=O)O[C@H]2C[C@H]1OC(C)=O	TGI	> 100 µM
CC1CSc2nc3[nH]c(=S)[nH]c3c(=O)n2C1 (centres undefined)	TGI	> 100 µM
CN1CCN(Cc2ccc(NC(=O)c3[nH]ncc3Nc3ncnc4c3CCC4)cc2)CC1	TGI	12.6 µM
COc1ccc(C=NC23CC4CC(CC(C4)C2)C3)cc1	TGI	> 100 µM
CCC(/C=C/c1ccccc1)=N\NC(=S)N/N=C(/C=C/c1ccccc1)CC	TGI	> 100 µM
Cc1ccc(C(=O)N/N=C/c2cccc(Oc3ccccc3)c2)cn1	TGI	> 100 µM
C=CC1(CBr)CCC(C(C)(C)Br)O1 (centres undefined)	TGI	23.8 µM
CC1(C)OC[C@@]2([C@@H]3CC[C@@H](C3)C2(C)C)N1O	TGI	> 100 µM
COC(=O)CC1(O)C(C=C(C)C)C(C(=O)OC)C(=O)C(C(=O)OC)C1C(=O)OC (centres undefined)	TGI	> 100 µM
C#CC[C@H](c1nc2cc(Cl)ccc2c(=O)n1Nc1ccccc1)N(CCCN)C(=O)c1cccc(Cl)c1F	TGI	5.68 µM
Cc1ccc(S(=O)(=O)OCC23CCC(C4CC42)C2CC23)cc1 (centres undefined)	TGI	> 100 µM
CC(C)(C)C(=O)C(c1ccc(-c2cscn2)cc1)c1ccc(-c2cscn2)cc1	TGI	> 100 µM
N#Cc1nsnc1-c1nc(-c2nsnc2C#N)nc(-c2nsnc2C#N)n1	TGI	> 100 µM
CC1(C)SC2C(NC(=O)Cc3ccccc3)C(=O)N2C1C(=O)O (centres undefined)	TGI	> 100 µM
C=C1C(C[C@@H]2O[C@H]3C[C@H]4O[C@@]5(C[C@@H]6O[C@]7(C[C@H](C)[C@@H]8O[C@@H]9CC(C(O)CO)O[C@@H]9C[C@@H]8O7)C[C@H](C)[C@@H]6O5)C[C@H]4O[C@H]3[C@H](C)[C@H]2O)O[C@@H](CC[C@@H]2O[C@@H](CC[C@@]34CC5O[C@H]6C(O[C@H]7CC[C@H](CC(=O)OC)O[C@@H]7[C@@H]6O3)[C@H]5O4)CC2=C)C[C@H]1C (some centres undefined)	TGI	0.0209 µM
COc1ccc(/C=N/n2c(C)n[nH]c2=O)cc1	TGI	> 100 µM
Cc1ccc(N2C(=O)CC(=O)N(NC(=O)C(C)Oc3ccccc3C)C2=S)cc1 (centres undefined)	TGI	> 100 µM
CCCCC(=O)[O-].N.N.N.N.N.[Co+3].[O-][Cl+3]([O-])([O-])[O-]	TGI	> 100 µM
Cc1nn2c(/C=C3/C(=O)Nc4ccc(Cl)cc43)c(-c3ccccc3)nc2s1	TGI	31.9 µM
